Test system: Klebsiella aerogenes DSM 30053
test.summary: fold change of Putrescine concentration vs plate DMSO controls (fold change (ratio)); higher = more amine produced, active = hit call of the paper (significant change in both replicates, either direction)
test.parameters: incubation time: 27 h, anaerobic, 37 °C
Counter-ions that a name gives are not always drawn.
Exercise: state measured fold change of Putrescine concentration for each of the compounds provided.
Give bare numbers.

Here are 2 compounds together with their reported answers.
{"compound": "O=C1NCC2(CCN(CCc3ccccc3)CC2)O1 [Fenspiride hydrochloride] (20 µM)", "fold change of Putrescine concentration": 0.973}
{"compound": "CC(=O)N[C@@H](CCC(N)=O)C(=O)O [Acetyl-L-glutamine] (20 µM)", "fold change of Putrescine concentration": 1}

I have 2 compounds here; please give me fold change of Putrescine concentration for each one.
1. CC(=O)CC(c1ccccc1)c1c(O)c2ccccc2oc1=O (stereo unspecified) (20 µM)
2. CN(C)CCCN1c2ccccc2Sc2ccc(C(F)(F)F)cc21 [Triflupromazine hydrochloride] (20 µM)

1
0.998

Dear colleague, could you send me fold change of Putrescine concentration for each of the items below? Thanks.
1. COc1c2occc2c(OC)c2c(=O)cc(C)oc12 [Khellin] (20 µM)
2. CC(C)[C@H](N)C(=O)OCC(CO)OCn1cnc2c(=O)nc(N)[nH]c21 (stereo partly specified) [Valganciclovir hydrochloride] (20 µM)
3. COCCOC(=O)C1=C(C)NC(C)=C(C(=O)OC/C=C/c2ccccc2)C1c1cccc([N+](=O)[O-])c1 (stereo unspecified) [Cilnidipine] (20 µM)
4. O=C1CC2(CCCC2)CC(=O)N1CCCCN1CCN(c2ncccn2)CC1 [Buspirone hydrochloride] (20 µM)

1. 1.01
2. 1.01
3. 1.01
4. 1.01

Answer for every listed entry: what is its fold change of Putrescine concentration? The entries follow.
1. CCc1oc2ccccc2c1C(=O)c1cc(Br)c(O)c(Br)c1 [Benzbromarone] (20 µM)
2. CCN[C@H]1CN(CCCOC)S(=O)(=O)c2sc(S(N)(=O)=O)cc21 [Brinzolamide] (20 µM)
3. Cn1c(=O)c2c(ncn2CCO)n(C)c1=O [Etofylline] (20 µM)
4. Cc1ccc(=O)n(-c2ccccc2)c1 [Pirfenidone] (20 µM)

1. 0.994
2. 0.989
3. 0.997
4. 1.01

Give measured fold change of Putrescine concentration for every item shown.
1. CCN(CC)C(C)CN1c2ccccc2Sc2ccccc21 (stereo unspecified) [Ethopropazine hydrochloride] (20 µM)
2. COCCCOc1cc(C[C@@H](C[C@H](N)[C@@H](O)C[C@H](C(=O)NCC(C)(C)C(N)=O)C(C)C)C(C)C)ccc1OC [Aliskiren hemifumarate] (20 µM)
3. CCc1c2c(nc3ccc(OC(=O)N4CCC(N5CCCCC5)CC4)cc13)-c1cc3c(c(=O)n1C2)COC(=O)[C@]3(O)CC [Irinotecan hydrochloride trihydrate] (20 µM)
4. CCCCCCCCCCCCCCCC[N+](C)(C)CCN(Cc1ccc(OC)cc1)c1ncccn1 [Thonzonium bromide] (20 µM)

1: 1; 2: 1.02; 3: 1; 4: 1
